test system: HCV 1b genotype replicon; test: HCV Replicon Assay - qRT-PCR (HCV RNA detection); format: cell-based; conditions: Hepatitis C virus, from the qRT-PCR or luciferase assay (not specified which), read-out: Genotype-1b replicon EC50 Range
pEC50: −log10 of the molar value.
attribute.measured: pEC50

In plain terms, O=C(c1ccccn1)N1CCC[C@H]1c1nc2cc(-c3ccc(-c4ccc5[nH]c([C@@H]6CCCN6C(=O)c6ccccn6)nc5c4)cc3)ccc2[nH]1 has a documented pEC50 of < 8.00

In plain terms, COC(=O)N[C@@H](C(=O)N1CCC[C@H]1c1nc2cc(N3CC(=O)N(c4ccc5[nH]c([C@@H]6CCCN6C(=O)[C@H](NC(=O)OC)c6ccccc6)nc5c4)CC3=O)ccc2[nH]1)c1ccccc1 has a documented pEC50 of < 8.00

In plain terms, CC[C@H](NC(=O)OC)C(=O)N1CCC[C@H]1c1nc2cc(-c3ccc(-c4ccc5[nH]c([C@@H]6CCCN6C(=O)[C@H](CC)NC(=O)OC)nc5c4)cc3)ccc2[nH]1 has a documented pEC50 of > 9.00

In plain terms, COC(=O)N[C@@H](C(=O)N1CCC[C@H]1c1nc2cc(-c3ccc(-c4ccc5[nH]c([C@@H]6CCCN6C(=O)[C@H](NC(=O)OC)c6ccccc6)nc5c4)cc3)ccc2[nH]1)c1ccccc1 has a documented pEC50 of > 9.00

In plain terms, O=C([C@@H]1CCCO1)N1CCC[C@H]1c1nc2cc(-c3ccc(-c4ccc5[nH]c([C@@H]6CCCN6C(=O)[C@@H]6CCCO6)nc5c4)cc3)ccc2[nH]1 has a documented pEC50 of < 8.00

In plain terms, COC(=O)N[C@H](C(=O)N1CCC[C@H]1c1nc2cc(-c3ccc(-c4ccc5[nH]c([C@@H]6CCCN6C(=O)[C@@H](NC(=O)OC)C(C)C)nc5c4)cc3)ccc2[nH]1)C(C)C has a documented pEC50 of > 9.00

In plain terms, CC(C)[C@H](NC(=O)OCc1ccccc1)C(=O)N1CCC[C@H]1c1nc2cc(-c3ccc(-c4ccc5[nH]c([C@@H]6CCCN6C(=O)[C@@H](NC(=O)OCc6ccccc6)C(C)C)nc5c4)cc3)ccc2[nH]1 has a documented pEC50 of < 8.00

In plain terms, COC(=O)N[C@H](C(=O)N1CCC[C@H]1c1nc2cc(-c3ccc(-c4ccc5[nH]c([C@@H]6CCCN6C(=O)[C@@H](NC(=O)OC)C6CC6)nc5c4)cc3)ccc2[nH]1)C1CC1 has a documented pEC50 of > 9.00

In plain terms, O=C(c1ccncc1)N1CCC[C@H]1c1nc2cc(-c3ccc(-c4ccc5[nH]c([C@@H]6CCCN6C(=O)c6ccncc6)nc5c4)cc3)ccc2[nH]1 has a documented pEC50 of < 8.00

In plain terms, O=C([C@H]1CCCO1)N1CCC[C@H]1c1nc2cc(-c3ccc(-c4ccc5[nH]c([C@@H]6CCCN6C(=O)[C@H]6CCCO6)nc5c4)cc3)ccc2[nH]1 has a documented pEC50 of < 8.00

In plain terms, CN(C)[C@@H](C(=O)N1CCC[C@H]1c1nc2cc(-c3ccc(-c4ccc5[nH]c([C@@H]6CCCN6C(=O)[C@@H](c6ccccc6)N(C)C)nc5c4)cc3)ccc2[nH]1)c1ccccc1 has a documented pEC50 of > 9.00

In plain terms, COC(=O)N[C@H](C(=O)N1CCC[C@H]1c1nc2cc(-c3ccc(-c4ccc5[nH]c([C@@H]6CCCN6C(=O)[C@@H](NC(=O)OC)C(C)(C)C)nc5c4)cc3)ccc2[nH]1)C(C)(C)C has a documented pEC50 of > 9.00

In plain terms, COC(=O)N[C@@H](Cn1cccn1)C(=O)N1CCC[C@H]1c1nc2cc(-c3ccc(-c4ccc5[nH]c([C@@H]6CCCN6C(=O)[C@H](Cn6cccn6)NC(=O)OC)nc5c4)cc3)ccc2[nH]1 has a documented pEC50 of > 9.00

In plain terms, COC(=O)N[C@H](C(=O)N1CCC[C@H]1c1nc2cc(-c3ccc(-c4ccc5[nH]c([C@@H]6CCCN6C(=O)[C@@H](NC(=O)OC)[C@@H](C)O)nc5c4)cc3)ccc2[nH]1)[C@@H](C)O has a documented pEC50 of > 9.00

In plain terms, COC(=O)N[C@@H](C(=O)N1CCC[C@H]1c1nc2cc(N3CCN(c4ccc5[nH]c([C@@H]6CCCN6C(=O)[C@H](NC(=O)OC)c6ccccc6)nc5c4)CC3)ccc2[nH]1)c1ccccc1 has a documented pEC50 of > 9.00

In plain terms, COC(=O)N[C@H](C(=O)N1CCC[C@H]1c1nc2cc(-c3ccc(-c4ccc5[nH]c([C@@H]6CCCN6C(=O)[C@@H](NC(=O)OC)[C@@H](C)OC)nc5c4)cc3)ccc2[nH]1)[C@@H](C)OC has a documented pEC50 of > 9.00

In plain terms, COC(=O)N[C@@H](C)C(=O)N1CCC[C@H]1c1nc2cc(-c3ccc(-c4ccc5[nH]c([C@@H]6CCCN6C(=O)[C@H](C)NC(=O)OC)nc5c4)cc3)ccc2[nH]1 has a documented pEC50 of > 9.00

In plain terms, CO[C@@H](C(=O)N1CCC[C@H]1c1nc2cc(-c3ccc(-c4ccc5[nH]c([C@@H]6CCCN6C(=O)[C@H](OC)c6ccccc6)nc5c4)cc3)ccc2[nH]1)c1ccccc1 has a documented pEC50 of > 9.00

In plain terms, COC(=O)N[C@H]1CC[C@H](C(=O)N2CCC[C@H]2c2nc3cc(-c4ccc(-c5ccc6[nH]c([C@@H]7CCCN7C(=O)[C@H]7CC[C@H](NC(=O)OC)CC7)nc6c5)cc4)ccc3[nH]2)CC1 has a documented pEC50 of < 8.00

Source of measurements: patent US9000020B2
